B1: SMOC2 (parent)
chain: PALETQPQGDEEDIASRYPTLWTE

- Variants of: B1
- assay.details: protein stability index of a GFP-peptide fusion (GPS, HEK-293T) (PSI 1-6); higher = more stable;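 note: lentivirally expressed fusions sorted by FACS into six bins by GFP to DsRed ratio, PSI derived from sequencing read proportions per bin multiplied by bin number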
- assay.setup: c terminus: a fixed tail appended
As shown below, each of these variants has a reported protein stability index value.

[[record]]
variant_id = "Q6C"
assay_readout = "protein stability index"
experimental_value = 4.7

[[record]]
variant_id = "Q6Y"
assay_readout = "protein stability index"
experimental_value = 4.66

[[record]]
variant_id = "D13Y"
assay_readout = "protein stability index"
experimental_value = 3.59

[[record]]
variant_id = "R17C"
assay_readout = "protein stability index"
experimental_value = 3.2

[[record]]
variant_id = "E24V"
assay_readout = "protein stability index"
experimental_value = 4.22


Record summary for "D10G" : reported protein stability index = 3.68

Record summary for "P7W" : reported protein stability index = 4.02

Record summary for "E24R" : reported protein stability index = 4.81

Record summary for "P19I" : reported protein stability index = 4.24

Record summary for "W22E" : reported protein stability index = 5.2
